- Tested on: MCF7
- ASSAY PROCEDURE: Cytotoxicity against human MCF7 cells after 48 hrs by MTT assay
- Assay type: functional, cell-based
- CONDITION PARAMETERS: MCF7, 48 h
pIC50: −log10 of the molar value.
REPORTED ENDPOINT: pIC50

* COC(C)(C)CCC[C@@](O)(CO[C@@H]1O[C@H](CO)[C@@H](O)[C@H](O)[C@H]1O)[C@H]1CC[C@]2(C)[C@@H]1CC[C@@H]1C3=C(CC[C@]12C)C(C)(C)[C@@H]1CC[C@H]3O1 | 5.16
* CC(C)(O)CC/C=C(/CO[C@@H]1O[C@H](CO)[C@@H](O)[C@H](O)[C@H]1O)[C@@H]1CC[C@]2(C)[C@@H]1CC[C@@H]1[C@@]3(C)CC[C@H](O)C(C)(C)[C@@H]3CC[C@]12C | 4.33
* CC(C)(O)CC/C=C(/CO[C@@H]1O[C@H](CO)[C@@H](O)[C@H](O)[C@H]1O)[C@H]1CC[C@]2(C)[C@@H]1CC[C@@H]1[C@@]3(C)CC[C@H](O)C(C)(C)[C@@H]3CC[C@]12C | 4.28
* CC(C)(O)CCC[C@@H](CO[C@@H]1O[C@H](CO)[C@@H](O)[C@H](O)[C@H]1O)[C@H]1CC[C@]2(C)[C@@H]1CC[C@@H]1C3=C(CC[C@]12C)C(C)(C)[C@@H]1CC[C@H]3O1 | 4.67
* CC(C)(O)CC/C=C(/CO[C@@H]1O[C@H](CO)[C@@H](O)[C@H](O)[C@H]1O)[C@H]1CC[C@]2(C)[C@@H]1CC[C@@H]1C3=C(CC[C@]12C)C(C)(C)[C@@H]1CC[C@H]3O1 | 4.84

The values you see were collected from ChEMBL document CHEMBL3600332.
